test-protocol: Cytotoxicity against HEK293T cells assessed as inhibition of cell growth at 50 ug/mL after 72 hrs by MTT assay
Format: cell-based, HEK-293T
stated-conditions: human, read-out: GI
// reported inhibition at 72 h, 50 ug/mL per item
Form entry: value (%) — number only.

Ask: Would you kindly share the measured inhibition at 72 h, 50 ug/mL for Nc1ncccc1-c1ccc2nc(C(=O)NCc3ccc(F)cc3)cn2c1 ?
Reply: 40.8

Ask: Would you kindly share the measured inhibition at 72 h, 50 ug/mL for CN1CCN(C(=O)c2ccc(-c3ccc4nc(C(=O)NCc5ccco5)cn4c3)cc2)CC1 ?
Reply: 30.1

Ask: Would you kindly share the measured inhibition at 72 h, 50 ug/mL for O=C(NCc1ccco1)c1cn2cc(-c3cccc4ncccc34)ccc2n1 ?
Reply: 24.8

Ask: Would you kindly share the measured inhibition at 72 h, 50 ug/mL for COc1ccccc1-c1ccc2nc(C(=O)NCc3ccncc3)cn2c1 ?
Reply: 31.6

====

test-protocol: Cytotoxicity against HEK293T cells assessed as inhibition of cell growth at 50 ug/mL after 72 hrs by MTT assay
Assay type: cell-based, HEK-293T
stated-conditions: human, read-out: GI
// reported inhibition at 72 h, 50 ug/mL per item
Include the unit after the number when you answer.

A selection of reference data follows.
{"given-smiles": "O=C(NCc1ccc(F)cc1)c1cn2cc(-c3cccc4ncccc34)ccc2n1", "inhibition at 72 h, 50 ug/mL": "28.1%"}
{"given-smiles": "O=C(NCc1ccc(C(F)(F)F)cc1)c1cn2cc(-c3cnn(CCN4CCOCC4)c3)ccc2n1", "inhibition at 72 h, 50 ug/mL": "22.2%"}

Ask: Would you kindly share the measured inhibition at 72 h, 50 ug/mL for Cn1cc(-c2ccc3nc(C(=O)NCc4ccc(F)cc4)cn3c2)cn1 ?
Reply: 36.1%

Ask: Would you kindly share the measured inhibition at 72 h, 50 ug/mL for O=C(NCc1ccco1)c1cn2cc(-c3cnn(CCN4CCOCC4)c3)ccc2n1 ?
Reply: 34.1%

Ask: Would you kindly share the measured inhibition at 72 h, 50 ug/mL for O=C(NCc1ccc(C(F)(F)F)cc1)c1cn2cc(-c3cccc4ncccc34)ccc2n1 ?
Reply: 37.8%

Ask: Would you kindly share the measured inhibition at 72 h, 50 ug/mL for Nc1ncccc1-c1ccc2nc(C(=O)NCc3ccco3)cn2c1 ?
Reply: 26.1%

Ask: Would you kindly share the measured inhibition at 72 h, 50 ug/mL for O=C(NCc1ccncc1)c1cn2cc(-c3ccc(Cl)cc3)ccc2n1 ?
Reply: 26.1%

====

test-protocol: Cytotoxicity against HEK293T cells assessed as inhibition of cell growth at 50 ug/mL after 72 hrs by MTT assay
Assay type: cell-based, HEK-293T
stated-conditions: human, read-out: GI
property-measured: inhibition at 72 h, 50 ug/mL (%)
Form entry: value (%) — number only.

A selection of reference data follows.
{"given-smiles": "O=C(NC1CCOCC1)c1cn2cc(-c3cnn(CCN4CCOCC4)c3)ccc2n1", "inhibition at 72 h, 50 ug/mL, %": 30.1}
{"given-smiles": "O=C(NC1CC1)c1cn2cc(-c3cnn(CCN4CCOCC4)c3)ccc2n1", "inhibition at 72 h, 50 ug/mL, %": 29.1}

Kindly review the next compound as well.
Ask: Would you kindly share the measured inhibition at 72 h, 50 ug/mL for Cn1cc(-c2ccc3nc(C(=O)NCc4ccc5c(c4)OCO5)cn3c2)cn1 ?
Reply: 25.6
